Biological target: T1, IL-23 (HEK293E-derived) (human, UniProt P29460 23-328; Q9NPF7 20-189)
T1 sequence 1: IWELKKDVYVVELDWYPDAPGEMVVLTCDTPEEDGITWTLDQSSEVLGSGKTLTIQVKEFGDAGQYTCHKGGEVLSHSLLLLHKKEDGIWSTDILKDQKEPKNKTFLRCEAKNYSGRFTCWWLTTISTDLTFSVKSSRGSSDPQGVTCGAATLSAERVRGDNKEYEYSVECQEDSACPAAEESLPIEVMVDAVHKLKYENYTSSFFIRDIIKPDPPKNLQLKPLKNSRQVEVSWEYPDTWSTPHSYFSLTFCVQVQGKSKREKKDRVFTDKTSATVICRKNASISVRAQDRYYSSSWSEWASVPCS
T1 sequence 2: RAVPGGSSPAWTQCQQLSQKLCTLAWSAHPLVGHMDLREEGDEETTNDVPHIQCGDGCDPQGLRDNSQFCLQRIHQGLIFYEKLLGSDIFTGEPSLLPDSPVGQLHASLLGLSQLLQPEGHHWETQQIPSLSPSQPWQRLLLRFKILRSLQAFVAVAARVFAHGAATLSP
Assay: SPR (Biacore), antibody supernatant captured on Protein A, IL-23 at 5 ug/ml as analyte
Protocol: As a result of the humanization processes 22 humanized antibodies were produced and tested for their ability to bind human IL-23 (Table 4). Briefly, 2 mL transfections of the 22 humanized antibodies were screened for antibody expression level and binding activity via SPR. Protein A was immobilized onto FC1 and FC2 (or alternatively FC3 and FC4) of a CM5 research grade sensor chip using amine coupling, giving approximately 3000 RU. FC1 was used as a blank throughout the experiments. […]
reported_endpoint: koff (s⁻¹)
# number only, unit s⁻¹ dropped from output

binder	observed_result
9-22 (antibody, human IgG1, kappa, V domains shown, Humanized form of E11E7; also called humanized antibody 9-22) VH: QVQLQESGPGLVKPSETLSLTCTVSGFSLISYNVHWIRQPPGKGLEWIGVIWTGGSTDYNPSLKSRVTISVDTSKNQFSLKLSSVTAADTAVYYCARDKYGLFPGYFDYWGQGTLVTVSS VL: DIVMTQSPDSLAVSLGERATINCKPSQSLLSSGNRKNYLAWYQQKPGQPPKLLIYYASTRQSGVPDRFSGSGSGTDFTLTISSLQAEDVAVYYCLQHFNYPWTFGQGTKLEIKR	0.000198

From here, focus on the item given below.
7-23 (antibody, human IgG1, kappa, V domains shown, Humanized form of E11E7; also called humanized antibody 7-23) VH: QVQLQESGPGLVKPSETLSLTCTVSGGSLSSYNVHWIRQPPGKGLEWIGVIWTGGSTDYNPSLKSRVTISRDTSKNQFSLKLSSVTAADTAVYYCARDKYGLFPGYFDYWGQGTLVTVSS VL: DIVMTQTPLSLPVTPGEPASISCKPSQSLLSSGNRKNYLAWYLQKPGQSPQLLIYYASTRQSGVPDRFSGSGSGTDFTLKISRVEAEDVGVYYCLQHFNYPWTFGQGTKLEIKR has a reported koff of 0.00391
